Measured % Inhibition of R123 Transport by item
# TARGET OR SYSTEM: UniProt P08183
# METHOD SUMMARY: Rhodamine 123 transport assay across HCT-8 cell monolayers
# ASSAY CONTEXT: compound 10 μM; Rh123 15 μM; HCT-8 cells
VALUE TYPE: % Inhibition of R123 Transport (%)

COCC1C(CCN2CCN(c3ccc(C(C)=O)cc3)CC2)c2cc(OC)c(OC)cc2C1c1ccc(OC)c(OC)c1 (centres unmarked) [AV-203]; 77.9
COc1ccc(C2c3cc(OC)c(OC)cc3C(CC(=O)N3CCN(C(=O)OC(C)(C)C)CC3)C2C(=O)N2CCN(C(=O)OC(C)(C)C)CC2)cc1OC (centres unmarked) [AV-180]; 40.4
CCCc1ccc(C(=O)NCCC2c3cc(OC)c(OC)cc3C(c3ccc(OC)c(OC)c3)C2CNC(=O)c2ccc(CCC)cc2)cc1 (centres unmarked) [AV-262]; 83.47
COc1ccc(N2CCN(CCC3c4cc(OC)c(OC)cc4C(c4ccc(OC)c(OC)c4)C3CN3CCN(c4ccc(OC)cc4)CC3)CC2)cc1 (centres unmarked) [AV-183]; 63.0
CCOc1ccccc1N1CCN(C(=O)CC2c3cc(OC)c(OC)cc3C(c3ccc(OC)c(OC)c3)C2C(=O)N2CCN(C)CC2)CC1 (centres unmarked) [AV-256]; 75.61

----------
# TARGET OR SYSTEM: P-glycoprotein (Homo sapiens, UniProt P08183)
# Sequence (P08183 whole entry): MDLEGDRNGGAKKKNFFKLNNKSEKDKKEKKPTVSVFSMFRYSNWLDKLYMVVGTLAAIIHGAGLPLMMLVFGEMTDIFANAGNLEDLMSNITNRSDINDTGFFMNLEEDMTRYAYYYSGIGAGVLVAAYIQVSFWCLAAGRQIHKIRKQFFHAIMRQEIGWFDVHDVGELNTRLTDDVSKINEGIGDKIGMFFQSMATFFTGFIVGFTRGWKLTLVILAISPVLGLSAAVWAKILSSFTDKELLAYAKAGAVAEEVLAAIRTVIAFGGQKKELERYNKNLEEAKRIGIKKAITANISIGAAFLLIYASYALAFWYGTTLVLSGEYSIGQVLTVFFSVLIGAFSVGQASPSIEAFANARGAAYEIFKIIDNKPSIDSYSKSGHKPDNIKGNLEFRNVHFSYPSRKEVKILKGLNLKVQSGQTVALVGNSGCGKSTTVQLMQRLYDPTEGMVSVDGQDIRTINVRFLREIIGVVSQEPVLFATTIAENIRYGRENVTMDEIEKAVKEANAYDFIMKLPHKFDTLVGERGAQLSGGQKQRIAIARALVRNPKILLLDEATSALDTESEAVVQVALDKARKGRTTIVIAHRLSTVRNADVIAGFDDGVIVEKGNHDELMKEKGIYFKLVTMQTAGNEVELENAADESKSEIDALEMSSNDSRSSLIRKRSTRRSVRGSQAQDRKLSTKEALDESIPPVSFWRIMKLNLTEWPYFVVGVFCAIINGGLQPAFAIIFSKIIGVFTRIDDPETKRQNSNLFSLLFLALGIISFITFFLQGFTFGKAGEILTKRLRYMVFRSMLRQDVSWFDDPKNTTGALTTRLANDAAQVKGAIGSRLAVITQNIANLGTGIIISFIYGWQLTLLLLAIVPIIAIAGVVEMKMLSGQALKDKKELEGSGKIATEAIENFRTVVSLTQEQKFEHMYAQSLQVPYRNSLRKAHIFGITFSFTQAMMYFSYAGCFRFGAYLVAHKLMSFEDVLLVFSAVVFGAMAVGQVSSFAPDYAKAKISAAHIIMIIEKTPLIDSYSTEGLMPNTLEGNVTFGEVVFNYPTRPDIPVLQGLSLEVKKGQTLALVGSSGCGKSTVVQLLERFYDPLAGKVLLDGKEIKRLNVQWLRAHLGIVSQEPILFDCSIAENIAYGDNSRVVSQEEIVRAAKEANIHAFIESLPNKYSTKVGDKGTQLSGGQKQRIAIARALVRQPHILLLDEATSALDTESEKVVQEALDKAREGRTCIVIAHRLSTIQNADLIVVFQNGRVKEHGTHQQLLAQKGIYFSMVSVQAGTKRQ
# METHOD SUMMARY: Rhodamine 123 transport assay across HCT-8 cell monolayers
# ASSAY CONTEXT: human, HCT-8 cell monolayers in Transwell dishes, probe Rhodamine 123 (15 μM)
VALUE TYPE: inhibition at 10 μM (%)

COCC1C(CCN2CCC(Cc3ccccc3)CC2)c2cc(OC)c(OC)cc2C1c1ccc(OC)c(OC)c1 (stereo not shown); 88.9

----------
Reported % Inhibition of R123 Transport by item:
# TARGET OR SYSTEM: P-glycoprotein (Homo sapiens, UniProt P08183)
# METHOD SUMMARY: Rhodamine 123 transport assay across HCT-8 cell monolayers
# ASSAY CONTEXT: compound 10 μM; Rh123 15 μM; HCT-8 cells
VALUE TYPE: % Inhibition of R123 Transport

CCOc1ccccc1N1CCN(C(=O)CC2c3cc4c(cc3C(c3ccc5c(c3)OCO5)C2C(=O)N2CCN(c3ccccc3OCC)CC2)OCO4)CC1 (single isomer, unassigned) [AV-258-2]; 67.09%
COc1ccc(C2c3cc(OC)c(OC)cc3C(CCNC(=O)NCc3ccccc3)C2CNC(=O)NCc2ccccc2)cc1OC (stereo not drawn) [AV-234]; 37.58%
COc1ccc(C2c3cc(OC)c(OC)cc3C(CC(=O)N3CCN(c4ccccc4OC)CC3)C2C(=O)N2CCN(c3ccccc3OC)CC2)cc1OC (stereo not drawn) [AV-188]; 87.6%
COc1ccc(C2c3cc(OC)c(OC)cc3C(CCNC(=O)c3ccc(Br)cc3)C2CNC(=O)c2ccc(Br)cc2)cc1OC (stereo not drawn) [AV-263]; 80.78%
COCC1C(CCOS(C)(=O)=O)c2cc(OC)c(OC)cc2C1c1ccc(OC)c(OC)c1 (stereo not drawn) [AV-177]; 9.4%
CCOc1ccc(C2c3cc(OCC)c(OCC)cc3C(CC(=O)N3CCN(c4ccccc4OCC)CC3)C2C(=O)N2CCN(c3ccccc3OCC)CC2)cc1OCC (stereo not drawn) [AV-253]; 92.03%
